Experiment: Cytotoxicity, PrestoBlue cell viability assay in BV-2 cells
Type: cell-based, mouse
Details: mouse, BV-2 microglial cells; 24 h, PrestoBlue; mean ± SEM; read-out: Cytotoxicity in BV-2 Cells (IC50 x¯ ± SEM µM)
parameter: IC50 at 24 h (µM)

O=C1NC2(CCOC2)Nc2cc(-c3ccnc(NC(=O)C4CC4)c3)sc21 (stereo not drawn)	54.8
CC1(C)NC(=O)c2sc(-c3ccnc(NC(=O)C4CC4)c3)cc2N1	3.6
O=C1NC2(CCCC2)Nc2cc(-c3ccnc(NC(=O)C4CC4)c3)sc21	3
NC(=O)Nc1cc(-c2cccc(NC(=O)C3CC3)c2)sc1C(N)=O	51.4
CC(C)C(=O)Nc1cc(-c2cc3c(s2)C(=O)NC(C)(C)N3)ccn1	4.5
COc1nc(-c2ccnc(NC(=O)C3CC3)c2)sc1C(N)=O [II, reference compound]	15.4
CC(C)C(=O)Nc1cc(-c2cc(NC(N)=O)c(C(N)=O)s2)ccn1	21.8

====

# viability at 24 h, 100 µM per entry
Assay: Cytotoxicity, PrestoBlue cell viability assay in BV-2 cells
Format: cell-based, mouse
Settings: mouse, BV-2 microglial cells, 100 µM (log C -4); 24 h; read-out: immunotoxicity in BV-2 cells, % of cell viability
parameter: viability at 24 h, 100 µM (%)

O=C1NC2(CCCC2)Nc2cc(-c3ccnc(NC(=O)C4CC4)c3)sc21 [Compound 60]	3
O=C1NC2(CCOC2)Nc2cc(-c3ccnc(NC(=O)C4CC4)c3)sc21 (stereo not shown) [Compound 62]	2
COc1nc(-c2ccnc(NC(=O)C3CC3)c2)sc1C(N)=O [II, reference compound]	4
NC(=O)Nc1cc(-c2ccnc(NC(=O)C3CC3)c2)sc1C(N)=O [Compound 49]	74
NC(=O)Nc1cc(-c2ccnc(NC(=O)C3CCC3)c2)sc1C(N)=O [Compound 50]	50
NC(=O)Nc1cc(-c2cccc(NC(=O)C3CC3)c2)sc1C(N)=O [Compound 58]	13
CC1(C)NC(=O)c2sc(-c3ccnc(NC(=O)C4CC4)c3)cc2N1 [Compound 40]	2

====

Assay: Cytotoxicity, PrestoBlue cell viability assay in HT-22 cells
Type: cell-based, mouse
Settings: mouse, HT-22 hippocampal neuronal cells, 10 µM (log C -5); 24 h; read-out: neurotoxicity in HT-22 cells, % of cell viability
Protocol: We assessed their cytotoxic effects at five concentrations (0.1, 1, 10, 50, and 100 µM) in HT-22 (mouse hippocampal neuronal cells) and BV-2 (mouse microglial cells) cell lines using a fluorometric assay with PrestoBlue™ cell viability reagent (Table 4, Table S2 in the SI). […] Cell viability was evaluated using the PrestoBlue reagent (Thermo Fisher), according to the manufacturer’s procedures. […]
# viability at 24 h, 10 µM per entry
parameter: viability at 24 h, 10 µM

COc1nc(-c2ccnc(NC(=O)C3CC3)c2)sc1C(N)=O [II, reference compound]	87%
NC(=O)Nc1cc(-c2ccnc(NC(=O)C3CC3)c2)sc1C(N)=O	101%
NC(=O)Nc1cc(-c2cccc(NC(=O)C3CC3)c2)sc1C(N)=O	89%
CC1(C)NC(=O)c2sc(-c3ccnc(NC(=O)C4CC4)c3)cc2N1	71%
CC(C)C(=O)Nc1cc(-c2cc(NC(N)=O)c(C(N)=O)s2)ccn1	77%
O=C1NC2(CCCC2)Nc2cc(-c3ccnc(NC(=O)C4CC4)c3)sc21	62%
CC(C)C(=O)Nc1cc(-c2cc3c(s2)C(=O)NC(C)(C)N3)ccn1	55%
O=C1NC2(CCOC2)Nc2cc(-c3ccnc(NC(=O)C4CC4)c3)sc21 (centres unmarked)	105%
